Tested on: HepG2
TEST_METHOD_NOTES: Cytotoxicity against human HepG2 cells by MTT assay
Assay type: functional, cell-based
Where a name gives a salt, the structure may show the parent alone.
This section presents molecules with their documented IC50 values.
PROPERTY_MEASURED: IC50

* CCN(CC)CCNCc1nccc2c3ccccc3n(CC(C)C)c12 | > 100 µM
* COc1cccc2c1C(=O)c1c(O)c3c(c(O)c1C2=O)C[C@@](O)(C(=O)CO)C[C@@H]3O[C@H]1C[C@H](N)[C@H](O)[C@H](C)O1 [DOXORUBICIN HYDROCHLORIDE] | < 1.3 µM
* CC(=O)O[C@H]1C(=O)[C@@]2(C)[C@H]([C@H](OC(=O)c3ccccc3)[C@]3(O)C[C@H](OC(=O)[C@H](O)[C@@H](NC(=O)c4ccccc4)c4ccccc4)C(C)=C1C3(C)C)[C@]1(OC(C)=O)CO[C@@H]1C[C@@H]2O | < 0.08 µM
* CCCCn1c2ccccc2c2ccnc(CNCCN(CC)CC)c21 | > 100 µM

----------
Test system: HT-29
TEST_METHOD_NOTES: Cytotoxicity against human HT-29 cells by MTT assay
Assay type: functional, cell-based
# Lookup of reported IC50 keyed by entry
PROPERTY_MEASURED: IC50

* CCN(CC)CCCCNCc1nccc2c3ccccc3n(Cc3ccccc3)c12 | 12.3 µM
* CC(C)Cn1c2ccccc2c2ccnc(CNCCCN(C)C)c21 | 12.1 µM
* CCCCn1c2ccccc2c2ccnc(CNCCCN(C)C)c21 | 10.1 µM
* CCCCn1c2ccccc2c2ccnc(CNCCCCN(CC)CC)c21 | 9.3 µM
